The following are reported IC50 results, target or system Glyceraldehyde-3-phosphate dehydrogenase (Homo sapiens, UniProt P04406).

Solved cases below.
# Compound, IC50
measured = [
    ("COc1cccc(N2C(=O)C(Cl)=C(N3CCN(C)CC3)C2=O)c1", "> 50 µM (inconclusive)"),
    ("O=C1C(Cl)=C(N2CCOCC2)C(=O)N1c1ccc(C(F)(F)F)cc1", "> 50 µM (inconclusive)"),
    ("O=C1C(Cl)=C(N2CCN(Cc3ccccc3)CC2)C(=O)N1c1ccc(Cl)c(Cl)c1", "> 100 µM (not active)"),
    ("O=C1C2CCCCC2C(=O)N1c1ncn[nH]1 (stereo unspecified)", "> 100 µM (not active)"),
    ("Cc1ccc(N2C(=O)C(Cl)=C(N3CCN(C)CC3)C2=O)cc1", "> 50 µM (inconclusive)"),
]

Bench note, Glyceraldehyde-3-phosphate dehydrogenase (Homo sapiens, UniProt P04406): Cc1cc(-c2ccccc2)nc(S(C)(=O)=O)n1 , IC50 reads > 100 µM (not active)

----------
Molecular target: UniProtKB Q9BQF6
Sequence (Q9BQF6 whole entry): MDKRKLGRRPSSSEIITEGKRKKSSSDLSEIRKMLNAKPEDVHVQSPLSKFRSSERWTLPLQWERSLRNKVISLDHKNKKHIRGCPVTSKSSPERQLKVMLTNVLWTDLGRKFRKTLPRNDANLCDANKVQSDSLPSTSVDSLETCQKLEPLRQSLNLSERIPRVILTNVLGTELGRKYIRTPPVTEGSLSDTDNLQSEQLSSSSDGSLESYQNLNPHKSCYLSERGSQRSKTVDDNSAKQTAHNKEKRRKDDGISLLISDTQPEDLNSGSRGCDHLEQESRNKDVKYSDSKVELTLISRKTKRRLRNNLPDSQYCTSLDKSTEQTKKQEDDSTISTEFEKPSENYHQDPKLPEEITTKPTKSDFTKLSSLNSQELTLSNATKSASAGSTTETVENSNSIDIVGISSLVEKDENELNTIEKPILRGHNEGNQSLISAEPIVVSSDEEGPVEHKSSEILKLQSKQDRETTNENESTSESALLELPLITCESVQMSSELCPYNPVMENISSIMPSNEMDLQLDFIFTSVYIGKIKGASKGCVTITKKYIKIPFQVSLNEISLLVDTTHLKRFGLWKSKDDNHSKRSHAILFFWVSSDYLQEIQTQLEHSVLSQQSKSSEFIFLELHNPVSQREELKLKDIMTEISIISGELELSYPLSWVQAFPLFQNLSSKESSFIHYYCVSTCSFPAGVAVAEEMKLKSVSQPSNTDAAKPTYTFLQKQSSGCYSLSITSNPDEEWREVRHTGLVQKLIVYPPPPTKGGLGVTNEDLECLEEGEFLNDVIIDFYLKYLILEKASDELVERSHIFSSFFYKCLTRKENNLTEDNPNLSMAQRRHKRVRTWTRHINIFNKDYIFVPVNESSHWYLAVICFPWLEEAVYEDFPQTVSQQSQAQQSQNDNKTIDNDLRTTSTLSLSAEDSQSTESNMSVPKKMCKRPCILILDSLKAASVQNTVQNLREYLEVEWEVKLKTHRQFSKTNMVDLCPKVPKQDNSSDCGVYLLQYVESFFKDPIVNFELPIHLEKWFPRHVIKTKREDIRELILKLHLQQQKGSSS
Experiment: SENP7 protease inhibitors, SAR follow-up, biochemical, luminescence (AID 504497)
Assay type: functional
Activity calls are given as the source filed them.
I would appreciate it if you answered using one of these outcomes: t (active), f (inactive)

Some solved entries appear below for comparison.
# Molecular string, Category
rows = [
    ("CS(=O)(=O)c1ccc2nc(NC(=O)c3cccc(NS(=O)(=O)c4ccccc4)c3)sc2c1", "f"),
    ("Cc1cccc(-c2noc(/C=C/c3ccccc3)n2)c1", "t"),
    ("COc1ccc(N/N=C/c2cn(Cc3ccccc3)c3ccccc23)cc1", "f"),
    ("Cc1ccc(S(=O)(=O)Nc2ccc3sc(NC(=O)c4ccccc4)nc3c2)cc1", "f"),
    ("CCOC(=O)c1c(-c2ccc(Br)cc2)csc1NC(=O)C1CC1", "f"),
]

--- query ---
Task: Hi, do you know how O=C(O)c1ccc(OC2CSC2)cc1 came out in this test?
Output: f

----------
Target: Rac GTPase-activating protein 1 (Homo sapiens)
Sequence (Q9H0H5 whole entry): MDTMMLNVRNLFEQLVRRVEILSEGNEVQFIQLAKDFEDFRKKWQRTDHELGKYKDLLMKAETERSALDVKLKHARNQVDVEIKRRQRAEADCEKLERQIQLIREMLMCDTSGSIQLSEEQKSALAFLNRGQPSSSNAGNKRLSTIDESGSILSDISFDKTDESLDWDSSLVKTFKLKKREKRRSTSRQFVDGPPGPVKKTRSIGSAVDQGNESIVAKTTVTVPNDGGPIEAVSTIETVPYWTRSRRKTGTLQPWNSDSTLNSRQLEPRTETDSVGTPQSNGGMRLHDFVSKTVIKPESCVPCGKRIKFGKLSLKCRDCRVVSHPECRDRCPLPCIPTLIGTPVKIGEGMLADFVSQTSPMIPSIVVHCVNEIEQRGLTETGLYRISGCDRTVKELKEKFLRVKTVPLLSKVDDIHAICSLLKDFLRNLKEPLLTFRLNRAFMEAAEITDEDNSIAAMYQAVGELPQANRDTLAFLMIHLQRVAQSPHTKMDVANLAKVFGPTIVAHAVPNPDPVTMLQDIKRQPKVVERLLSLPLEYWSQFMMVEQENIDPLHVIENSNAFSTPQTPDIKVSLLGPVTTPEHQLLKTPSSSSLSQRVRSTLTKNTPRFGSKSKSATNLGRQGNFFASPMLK
Assay: MgcRacGAP GTPase-activating activity inhibitors, confirmation, biochemical, ADP Hunter fluorescence, primary and confirmatory (AID 624330)
Format: functional
Active and inactive are the calls of the source.
Observation type: IC50

# Molecular string, Endpoint result
measured = [
    ("COc1cc2nc(S)n3nc(CCn4nc(C)cc4C)nc3c2cc1OC", "23.2 µM (active)"),
    ("O=C(CN1CCc2ccccc2C1)Nc1ccccc1C(F)(F)F", "205 µM (active)"),
    ("CCN1CCN(CCCOc2ccccc2-c2ccccc2)CC1", "96.9 µM (active)"),
    ("CCN1CCN(CCCOc2ccc(Cl)cc2Br)CC1", "68.8 µM (active)"),
    ("COC(=O)C1=C(O)/C(=C\\c2ccc(O)c(OC)c2)N=C1C", "20.2 µM (active)"),
    ("CN(C)c1ccc(C=c2c3cc(O)ccc3n3c2cc(-c2ccccc2)[n+]3C)cc1", "20.1 µM (active)"),
    ("COc1cc(/C=N/NC(=O)c2cc[n+]([O-])cc2)ccc1O", "32.7 µM (active)"),
]

// moving on: another record for IC50
Entry under test: O=C(CN1CCN(c2ccc(O)cc2)CC1)Nc1ccc2c(c1)OCCCO2 . Its IC50 was 49.7 µM (active)

----------
Molecular target: Neuropeptide Y receptor type 1 (Homo sapiens);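 further: HEK293 cells with a CNG channel challenged with NPY then isoproterenol; potency as antagonist that reverses NPY suppression of cAMP signal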
Sequence (P25929 whole entry): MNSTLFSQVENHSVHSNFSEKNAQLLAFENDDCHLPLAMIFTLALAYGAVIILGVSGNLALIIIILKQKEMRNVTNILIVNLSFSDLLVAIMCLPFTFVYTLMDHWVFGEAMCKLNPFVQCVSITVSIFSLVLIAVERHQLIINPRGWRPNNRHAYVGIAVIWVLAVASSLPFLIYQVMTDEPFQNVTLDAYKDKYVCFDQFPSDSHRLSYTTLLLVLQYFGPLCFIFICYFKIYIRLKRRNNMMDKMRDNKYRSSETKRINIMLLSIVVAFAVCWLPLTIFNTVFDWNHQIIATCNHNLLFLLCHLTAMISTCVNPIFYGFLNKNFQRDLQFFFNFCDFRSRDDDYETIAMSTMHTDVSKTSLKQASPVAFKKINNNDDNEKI
Type: functional
Calls of active or inactive are those of the source.
Observation type: IC50

Solved cases below.
# Molecular string, IC50
records = [
    ("CC(C)OC(=O)/C(=C/c1ccc2c(c1)c1ccccc1n2C)NC(=O)c1ccccc1", "19.1 µM (not active)"),
    ("O=C(CCc1nc(-c2ccccc2)c(-c2ccccc2)o1)OCc1ccc(Br)cc1", "8.36 µM (active)"),
    ("Cc1cccc(-n2ccnc2SCC(=O)N2CCCc3ccccc32)c1C", "4.08 µM (active)"),
]

// moving on: another record for IC50
Entry under test: O=C(Nc1ccc(Cl)cc1)c1csc(-c2ccccc2)n1 . Its IC50 was 6.94 µM (active)

----------
Biological target: Fatty acid synthase (Homo sapiens, UniProt P49327)
Sequence (P49327 whole entry, the tested form may be a part): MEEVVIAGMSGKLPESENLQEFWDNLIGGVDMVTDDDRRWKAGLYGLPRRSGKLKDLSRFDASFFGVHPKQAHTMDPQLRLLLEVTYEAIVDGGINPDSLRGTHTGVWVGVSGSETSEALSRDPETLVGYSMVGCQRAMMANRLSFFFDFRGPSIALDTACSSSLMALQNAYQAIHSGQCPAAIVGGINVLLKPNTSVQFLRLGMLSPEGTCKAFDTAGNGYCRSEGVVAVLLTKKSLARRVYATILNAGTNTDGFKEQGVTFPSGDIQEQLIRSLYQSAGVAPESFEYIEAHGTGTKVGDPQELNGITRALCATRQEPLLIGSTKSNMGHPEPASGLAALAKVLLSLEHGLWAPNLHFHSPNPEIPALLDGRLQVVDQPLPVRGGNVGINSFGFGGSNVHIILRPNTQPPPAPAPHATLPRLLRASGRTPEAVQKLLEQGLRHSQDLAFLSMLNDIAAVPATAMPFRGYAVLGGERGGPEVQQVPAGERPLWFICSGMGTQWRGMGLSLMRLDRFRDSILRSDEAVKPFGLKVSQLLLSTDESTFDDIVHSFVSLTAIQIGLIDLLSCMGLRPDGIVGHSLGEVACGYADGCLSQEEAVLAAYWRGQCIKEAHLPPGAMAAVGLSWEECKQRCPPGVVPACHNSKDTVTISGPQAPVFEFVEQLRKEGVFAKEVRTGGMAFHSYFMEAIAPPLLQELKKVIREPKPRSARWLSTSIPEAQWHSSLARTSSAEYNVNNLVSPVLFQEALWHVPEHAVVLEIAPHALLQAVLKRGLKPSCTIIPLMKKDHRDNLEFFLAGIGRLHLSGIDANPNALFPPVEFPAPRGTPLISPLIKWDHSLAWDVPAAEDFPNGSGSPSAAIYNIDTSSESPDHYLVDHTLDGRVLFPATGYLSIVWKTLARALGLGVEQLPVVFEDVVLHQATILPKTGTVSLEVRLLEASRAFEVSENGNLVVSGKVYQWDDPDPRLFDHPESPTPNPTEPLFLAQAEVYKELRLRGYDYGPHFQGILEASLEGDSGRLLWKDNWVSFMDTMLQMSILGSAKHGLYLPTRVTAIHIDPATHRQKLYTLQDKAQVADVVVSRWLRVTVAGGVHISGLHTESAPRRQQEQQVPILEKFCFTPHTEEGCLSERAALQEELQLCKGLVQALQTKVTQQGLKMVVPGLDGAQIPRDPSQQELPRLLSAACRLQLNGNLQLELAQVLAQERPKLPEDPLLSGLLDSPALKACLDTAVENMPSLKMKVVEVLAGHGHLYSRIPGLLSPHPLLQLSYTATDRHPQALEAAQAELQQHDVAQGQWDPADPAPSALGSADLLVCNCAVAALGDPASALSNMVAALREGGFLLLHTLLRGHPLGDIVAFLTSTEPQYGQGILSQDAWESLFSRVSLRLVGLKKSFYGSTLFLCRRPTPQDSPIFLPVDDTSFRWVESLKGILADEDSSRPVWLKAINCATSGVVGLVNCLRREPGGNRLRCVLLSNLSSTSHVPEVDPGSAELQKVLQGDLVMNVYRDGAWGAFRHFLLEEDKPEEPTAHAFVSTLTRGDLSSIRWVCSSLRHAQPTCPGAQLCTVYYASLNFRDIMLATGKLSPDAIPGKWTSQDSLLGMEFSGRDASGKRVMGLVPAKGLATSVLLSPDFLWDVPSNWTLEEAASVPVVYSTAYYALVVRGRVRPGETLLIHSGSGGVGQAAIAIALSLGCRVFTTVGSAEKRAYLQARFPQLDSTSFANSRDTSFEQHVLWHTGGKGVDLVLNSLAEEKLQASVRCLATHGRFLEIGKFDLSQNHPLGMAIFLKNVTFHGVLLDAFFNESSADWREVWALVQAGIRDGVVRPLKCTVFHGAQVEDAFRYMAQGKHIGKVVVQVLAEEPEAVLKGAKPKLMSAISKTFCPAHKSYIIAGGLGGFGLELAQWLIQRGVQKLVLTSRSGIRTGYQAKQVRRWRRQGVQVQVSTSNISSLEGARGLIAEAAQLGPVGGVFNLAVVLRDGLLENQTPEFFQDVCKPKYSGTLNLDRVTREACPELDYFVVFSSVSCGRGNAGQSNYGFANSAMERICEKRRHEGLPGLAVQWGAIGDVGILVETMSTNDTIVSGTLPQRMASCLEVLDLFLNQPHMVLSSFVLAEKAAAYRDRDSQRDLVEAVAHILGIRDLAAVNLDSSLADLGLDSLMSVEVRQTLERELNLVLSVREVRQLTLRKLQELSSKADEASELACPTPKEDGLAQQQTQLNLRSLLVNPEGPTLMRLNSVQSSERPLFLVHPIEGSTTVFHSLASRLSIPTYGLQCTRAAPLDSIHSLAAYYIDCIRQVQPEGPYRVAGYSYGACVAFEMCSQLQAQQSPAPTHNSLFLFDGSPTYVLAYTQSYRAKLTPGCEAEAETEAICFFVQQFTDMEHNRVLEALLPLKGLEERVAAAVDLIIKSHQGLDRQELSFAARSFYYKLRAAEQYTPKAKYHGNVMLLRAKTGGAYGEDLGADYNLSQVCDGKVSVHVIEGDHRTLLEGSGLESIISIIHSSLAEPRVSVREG
Assay: FAS thioesterase domain inhibitors, dose response, biochemical, endpoint fluorescence intensity, uHTS hits (AID 624327);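 further: fluorescence from hydrolysis of an O-methyl fluorescein acyl ester substrate by the enzyme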
Format: functional
Active and inactive are the calls of the source.
# Lookup of reported IC50 keyed by entry

Entry under test: O=[N+]([O-])c1ccc(SNc2ccccc2)c([N+](=O)[O-])c1 . Its IC50 was 10.4 µM (active)

Entry under test: Cc1cccc(NC(=O)c2cc([N+](=O)[O-])ccc2N2CCN(C)CC2)c1 . Its IC50 was 8.93 µM (active)

Entry under test: COc1ccc(NC(=O)CN(c2ccc([N+](=O)[O-])cc2)S(=O)(=O)c2ccccc2)c(OC)c1 . Its IC50 was 4.43 µM (active)

Entry under test: O=C(N/N=C/c1coc2ccc(Cl)cc2c1=O)c1ccc(O)cc1 . Its IC50 was 6.64 µM (active)

Entry under test: CC(C)(C)OC(=O)NCc1ccc(CNC(=O)c2[nH]cnc2C(=O)NCC(=O)OCc2ccccc2)cc1 . Its IC50 was 6.98 µM (active)

----------
Target: Fatty acid synthase (Homo sapiens)
Experiment: FAS thioesterase domain inhibitors, dose response, biochemical, endpoint fluorescence intensity, uHTS hits (AID 624327)
Assay type: functional
Calls of active or inactive are those of the source.
Observation type: IC50

Solved cases below.
# Molecular string, Measurement target, Observation type, Endpoint result
data = [
    ("CCCCn1c(CN2CCN(c3ccccc3)CC2)nc2c1c(=O)n(C)c(=O)n2C", "Fatty acid synthase (Homo sapiens)", "IC50", "15.3 µM (active)"),
    ("COc1ccccc1NC(=O)c1ccccc1S(=O)(=O)c1ccc([N+](=O)[O-])cc1", "Fatty acid synthase (Homo sapiens)", "IC50", "14.9 µM (active)"),
]

Entry under test: O=C(Nc1ccc(Cc2ccncc2)cc1)c1ccc(Cl)c([N+](=O)[O-])c1 . Its IC50 was 10.2 µM (active)

Entry under test: O=C(CNC(=O)c1ccccc1)N/N=C/c1cc(Br)ccc1O . Its IC50 was 12.7 µM (active)

Entry under test: O=C(NCCCc1ccccc1)c1ccc([N+](=O)[O-])cc1Cl . Its IC50 was 1.25 µM (active)

Entry under test: Cc1c(Br)c([N+](=O)[O-])nn1CC(=O)Nc1ccc(C(C)C)cc1 . Its IC50 was 3.18 µM (active)

Entry under test: O=C(Nc1ccccc1)c1nnsc1S(=O)(=O)c1ccc(Cl)cc1 . Its IC50 was 8 µM (active)

Entry under test: O=C(Nc1ccc(Cl)cc1)c1csc(-c2ccccc2)n1 . Its IC50 was 12.3 µM (active)

Entry under test: CCn1cc(C(=O)NCc2ccc3c(c2)OCO3)c(=O)c2cc(S(=O)(=O)N(C)C)ccc21 . Its IC50 was 8.88 µM (active)

----------
System: INS1
Test: beta cell apoptosis inhibitors, cytokine rescue, dose response, luminescence, retest (AID 449756);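 further: cell death triggered by IL-1 beta plus TNF-alpha plus IFN-gamma mixture; protective hits raise ATP signal compared with cytokine alone wells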
Type: functional, cell-based
Settings: Rattus norvegicus
The source made the active and inactive calls.
# Lookup of reported AC50 keyed by entry

# Compound, Endpoint result
data = [
    ("Cc1cc(-c2ccccc2)cc(C)[n+]1Cc1ccccc1.[O-][Cl+3]([O-])([O-])[O-]", "719 nM (active)"),
    ("C/C(=N\\NC(=O)C(C)n1nc(C)c([N+](=O)[O-])c1C)c1ccccc1O (centres undefined)", "1930 nM (active)"),
    ("COc1ccc(C(=O)c2c(C(F)(F)F)oc3c2C(=O)c2ccccc2C3=O)cc1", "1380 nM (active)"),
]

// moving on: another record for AC50
Entry under test: Cn1nccc1C(=O)NC1CCCc2c1cnn2-c1ccccc1F (centres undefined) . Its AC50 was 2260 nM (active)
